TEST SUMMARY: Determination of biodistribution of radiolabeled compounds in rats after caudal vein administration
Assay type: in vivo, SD strain rats
CONDITION SUMMARY: SD-rats female, n = 3, caudal vein, 15 Minutes after administration
Documented Biodistribution, Urine across a set of molecules
The reply should contain only the number, in % ID.

O=C(O)CNC(=O)CC(P(=O)(O)O)P(=O)(O)O (99mTc complex, metal not drawn)	29.69

Moving on to another molecule below.
For this molecule ( `O=C(NCC(P(=O)(O)O)P(=O)(O)O)c1ccccc1I` ), measured Biodistribution, Urine is 19.55

====

TEST SUMMARY: Determination of biodistribution of radiolabeled compounds in rats after caudal vein administration
Type: in vivo, SD strain rats
CONDITION SUMMARY: SD-rats female, n = 3, caudal vein, 15 Minutes after administration
QUANTITY: Biodistribution, Blood (% ID/g)
State just the number; it will be interpreted in % ID/g.

// field: Biodistribution, Blood; key: O=C(O)CNC(=O)CC(P(=O)(O)O)P(=O)(O)O (99mTc complex, metal not drawn) ; value = 0.599

// field: Biodistribution, Blood; key: `O=C(NCC(P(=O)(O)O)P(=O)(O)O)c1ccccc1I` ; value = 0.717
